// data source = ChEMBL document CHEMBL1142432

Protein target, amino acids: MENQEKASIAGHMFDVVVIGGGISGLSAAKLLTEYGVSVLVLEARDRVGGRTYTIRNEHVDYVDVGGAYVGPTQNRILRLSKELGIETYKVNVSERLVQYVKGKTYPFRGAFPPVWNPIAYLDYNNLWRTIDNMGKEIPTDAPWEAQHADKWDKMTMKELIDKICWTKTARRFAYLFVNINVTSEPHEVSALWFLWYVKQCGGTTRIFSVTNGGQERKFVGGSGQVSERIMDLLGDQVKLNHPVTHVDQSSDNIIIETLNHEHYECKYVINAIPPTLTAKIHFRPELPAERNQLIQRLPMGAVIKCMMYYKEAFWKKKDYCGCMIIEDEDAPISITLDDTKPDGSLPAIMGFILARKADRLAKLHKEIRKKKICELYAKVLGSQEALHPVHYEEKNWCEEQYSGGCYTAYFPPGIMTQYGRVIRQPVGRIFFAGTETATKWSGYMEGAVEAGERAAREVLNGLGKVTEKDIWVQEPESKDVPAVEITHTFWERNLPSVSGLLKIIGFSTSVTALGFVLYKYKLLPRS
measurement type: Ki (µM)

chemical smiles	measured result
CC(=O)NC[C@H]1CN(c2ccc(N3CCOCC3)c(F)c2)C(=O)O1	55

###

- method description: Renal clearance in human
- Assay type: ADME, organism-based, Kidney
- setup conditions: in vivo, read-out: CL_renal
measurement type: CL renal (mL/min)

chemical smiles	measurement type	quantity unit	measured result
CC(=O)NC[C@H]1CN(c2ccc(N3CCOCC3)c(F)c2)C(=O)O1	CL renal	mL/min	30
